assay.text: protease stability score; higher = more stable; yeast display proteolysis, trypsin and chymotrypsin;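 note: relative to predicted unfolded state with 0 unfolded-like and 1 meaning tenfold more protease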

[
  {
    "ordered.residues": "DETREESYEFLWKLIHNWQTGNEDRLDELIDPHVRLVVGDKNHHGREELIELIREILERADHLRMRMRHFRVQGDKAEVDTRLQMEIGDKSIDTETHVRIIVVDGRVKYLEYEIK",
    "protease stability score": 0.459
  },
  {
    "ordered.residues": "DEEERLEREIVDHLWTNWYTGDEERMEELADPNVRLEINIGDKHIRLHGRHELLRHLHEWKERFKNIKIRLHDYRVIDGRVHLHVVYRFDGRHKTMHIELYIVNGRIKEIIHRES",
    "protease stability score": 1.66
  },
  {
    "ordered.residues": "SDEDEISKHWVELLVEHIKTGDEDFLFKMFDPNVRVIIGDKIMHGRETLLDLIEKELKEAGITRFSMNLHHVDTQGDKAHSNMILDVNGVYRNVRVHFEKIDGKWHMHTWEER",
    "protease stability score": 1.99
  },
  {
    "ordered.residues": "SELERDAEMAFKIYKHNIETGNEEELDKLVDPNVRLEAENHSTHGREDWYNLMRHFGVKHTDVKDFRIQGDKIHLHGVLHFNGRTFKITLYVHKFDGRWHIKSVEVH",
    "protease stability score": 0.364
  },
  {
    "ordered.residues": "DDEDRKKADEMLKALKHGDPDRVRELMDPNAKAVYGDKRIRGRDDFVEDMFRKQREIKIDMKIEEFRVNGNHAVFTVDVIEDKDGRPKRFKARVVITLHNGKIIDIKVEEEH",
    "protease stability score": 1.49
  },
  {
    "ordered.residues": "HEEHEEAWHEIELTYHLLNTGDFDEMNRLLDPNVRIHIGDKRYHGRHELDLLITKLGVKHVRWEVKHADIQGDKVDMDTIVHITQGDKEIRRDTRIKIRKIDGKWFVTELHVT",
    "protease stability score": 1.28
  },
  {
    "ordered.residues": "DEEEERARHWIERFVRAVLTGDWEHILRNADPNVRLHVGDKEIHGRERMIETFREFWERYPGVRIKIHQVEIQGEKSHLDGEIRFDGRRFRVEFEVVIINGKIHELHIRIH",
    "protease stability score": 2.62
  },
  {
    "ordered.residues": "TEDEKMLKESLERLLYTLHTGDEEFNKRLMDPEVRIVIGDKELHGMELARKFWEKLYKDLGADHVHMDVKHVRSIGDKVEVDSQLIFRVGDKEIRVDTKLFSHKFDGRWRLRYEYVD",
    "protease stability score": 1.39
  },
  {
    "ordered.residues": "DEDEEEVIKFFQEFLRDELTGDWHEVHRMLDPHARLDINGKHFVGREDVTEFFKKLVNELRIHDVHIKDVRIIGEKASIDTSVDGEVNGRKRHFETRIIILKIDGQWFLHEVHMR",
    "protease stability score": 1.47
  },
  {
    "ordered.residues": "SDMDEMISRFRREVEHSMQTGDERFDHEMADPHARFWINGVLFHGRHALEMWKEELGVDNFKIRHIHIRDEKIQGNKITLDVEYHLLVNGQQVDLRVILIYRKVNGKWTLEEERLV",
    "protease stability score": 0.851
  },
  {
    "ordered.residues": "DEDEEQTRRAWKINLEQWLTGDEELLDRNLDPDVRNDVNGVRLHGMELLTEMLHRFIEKLKGATIRLKDFRLRFYGNKIEVRVETIVHVNGVQIHVELIFIATKVDGRWRIHEISHHNR",
    "protease stability score": 0.868
  }
]
